Data origin, for the record: ChEMBL document CHEMBL3988442

# System: Trypanosoma brucei
# procedureDetails: Trypanosoma brucei 72 hour study
# Assay type: functional, organism-based
# Set-up: scale not given: in the data most compounds retested in dose-response had high values
# testSettings: 30 µM; 30.03 µM
The campaign covered roughly 66,000 compounds. About 960 (1.5%) showed an effect of 50% or more. The sample holds strong results, similar compounds and a random draw of the others, so the mix is not that of the screen.
Catalogue of molecules with associated Percent Effect

Consider the following illustrative entries.
molecule | recordedMetric | measurement
Cn1c(CCN2CCN(CCc3ccccc3)CC2)nc2ccccc21 | Percent Effect | -13.15%
CCCc1ccc(N2CCN(Cc3nc4ccccc4n3C)CC2)cc1 | Percent Effect | 90.43%
COC(=O)Cn1c(=O)nc2n1C(=O)N(c1cccc(Cl)c1)C2 | Percent Effect | -8.775%
CSCC(=O)NC(Cc1ccc(C)cc1)c1ccccn1 (stereo unspecified) | Percent Effect | -45.46%
Cc1nc(N)nc(C)c1CC(=O)NCc1ccc2nonc2c1 | Percent Effect | -40.59%
COc1c(C)cnc(CN(C)C2CCCCC2)c1C | Percent Effect | 75.58%
CC1=C[C@@H](CN2CCOCC2)[C@H](C(C)C)C[C@H]1Cc1nnc(C)o1 | Percent Effect | 60.87%
Cc1cnn(CCC(=O)N2CCN(C(=O)C3CC3)[C@@H]3CS(=O)(=O)C[C@@H]32)c1 | Percent Effect | 64.13%

// recorded Percent Effect for COc1c(C)cnc(CN(C)C2CCOC3(CCOCC3)C2)c1C (stereo unspecified) : -25.65%

// recorded Percent Effect for O=C(O)C(F)(F)F.O=C(O)C(F)(F)F.c1cncc(-c2nnn3c2COCC(CNC2CCOCC2)C3)c1 (stereo unspecified) : -0.7004%

// recorded Percent Effect for Cc1nc(CN2CCCC(NCc3ccsc3)C2)no1 (stereo unspecified) : -22.48%

// recorded Percent Effect for CCC(CC)C(=O)N1CCc2nc(N3CCCC3)nc(C)c2CC1 : -41.54%

// recorded Percent Effect for CC1=C[C@@H](CN2CCCC2)[C@H](C(C)C)C[C@H]1Cc1nnc(C)o1 : 17.59%

// recorded Percent Effect for CSc1ccccc1C(=O)N1C[C@H]2CC[C@@H]1CN(C(=O)N(C)C)C2 : -19.87%

// recorded Percent Effect for CSc1ccc(CN(C)Cc2noc(C(C)(C)C)n2)cc1 : -12.59%

// recorded Percent Effect for Cc1cnn(CCC(=O)N2CCN(C(=O)C(C)C)[C@@H]3CS(=O)(=O)C[C@@H]32)c1 : 31%

// recorded Percent Effect for N#Cc1cccc(CN2CC[C@@H]3[C@@H]2CC(=O)N3Cc2cccnc2)c1.O=C(O)C(F)(F)F.O=C(O)C(F)(F)F : -2.932%

// recorded Percent Effect for Cn1cc(CN2CCc3c(nc(-c4ccccn4)[nH]c3=O)C2)cn1 : 19.69%

// recorded Percent Effect for O=C(O)C(F)(F)F.O=C(c1cccs1)N1CC[C@@H](N2CCOCC2)[C@@H]1Cc1ccccc1 : 16.01%

// recorded Percent Effect for CC(C)Cc1nc(OCC(N)=O)c(C#N)c2c1CCCC2 : -29.84%

// recorded Percent Effect for COc1cc(CNCc2ccc(C(C)O)cc2)cc2c1OCO2 (stereo unspecified) : 8.941%

====

# Tested on: Trypanosoma brucei
# procedureDetails: Trypanosoma brucei 72 hour study
# Format: functional, organism-based
# Set-up: scale not given: in the data most compounds retested in dose-response had high values
# testSettings: 30 µM; 30.03 µM
Among all 66,000 compounds or so, about 960 (1.5%) showed an effect of 50% or more. This is one part of a sample in which strong results are shown more often than they occur.
Catalogue of compounds with associated Percent Effect
Field: numeric (%). Do not append units.

Consider the following illustrative entries.
compound | Percent Effect, %
CCS(=O)(=O)c1ccccc1N1CCC(NC(=O)NC2CCCC2)CC1 | 7.94
CC(C)(C)n1ncc2c1CCCC2NCc1cccc2c1OCO2 (stereo unspecified) | -18.28
CCS(=O)(=O)c1ccccc1N1CCC(NC(=O)c2ccc[nH]2)CC1 | 54.24
CCn1ncc2c1CCCC2NCc1cccc2c1OCCO2 (stereo unspecified) | 6.251
O=C(Nc1ccc(Cl)cc1)c1nn(C2CCS(=O)(=O)C2)c2c1CCCC2 (stereo unspecified) | -43.99
CCOc1ncccc1NC(=O)c1cc(C)sc1C | -36.47

Given the compound CCCn1c(=O)n(CCC(=O)N(C)Cc2ccc(C)o2)c2ccccc21 and test system Trypanosoma brucei, the measured Percent Effect is -21.38

Given the compound O=C(Nc1ccccc1)c1nn(C2CCS(=O)(=O)C2)c2c1CCCC2 (stereo unspecified) and test system Trypanosoma brucei, the measured Percent Effect is 23.09

Given the compound CO[C@H]1CN(C(C)C)C[C@@H]1NC(=O)Nc1ccc2oc(C)cc2c1 and test system Trypanosoma brucei, the measured Percent Effect is -77.41

Given the compound CO[C@H]1CN(C(C)C)C[C@@H]1NC(=O)Nc1ccc(C(F)(F)F)cc1 and test system Trypanosoma brucei, the measured Percent Effect is 82.01

Given the compound CO[C@H]1CN(C(C)C)C[C@@H]1NC(=O)Nc1cccc(SC)c1 and test system Trypanosoma brucei, the measured Percent Effect is -47.34

====

# Test system: Trypanosoma brucei
# procedureDetails: Trypanosoma brucei 72 hour study
# Type: functional, organism-based
# Design: scale not given: in the data most compounds retested in dose-response had high values
# testSettings: 30 µM; 30.03 µM
In all, about 66,000 compounds went through this assay and about 960 (1.5%) showed an effect of 50% or more. The entries come from a sample that favours strong results as a whole.
recordedMetric: Percent Effect (%)
Field: numeric (%). Do not append units.

Consider the following illustrative entries.
compound | unitAbbrev | Percent Effect
Cc1nc(CN2CCO[C@@H]3CN(C(=O)CC4CC4)CC[C@@H]3C2)cs1 | % | 61.23
COc1cc(N2CCCC(c3nccn3Cc3cscn3)C2)nc(N)n1 (stereo unspecified) | % | 59
COc1cccc(Cc2nc3c([nH]2)CC(C)(C)CNC3=O)c1OC | % | 5.431
Br.Cc1ccc(C(=O)CN(C2=NCCCCC2)c2ccccc2)cc1 | % | -7.636
Cc1ccccc1-n1cnnc1SCCOCC1CCCO1 (stereo unspecified) | % | -22.78

// recorded Percent Effect for Cc1nc(CN2CCO[C@@H]3CN(C(=O)CN(C)C)CC[C@@H]3C2)cs1 : 8.371

// recorded Percent Effect for Cc1ccc(C(NC(=O)C2CC2)c2cccc(S(C)(=O)=O)c2)cc1 (stereo unspecified) : -25.5

// recorded Percent Effect for Br.Cc1ccc(N(CC(=O)c2ccc(Br)cc2)C2=NCCCCC2)cc1 : 102.1

// recorded Percent Effect for Cc1ccccc1-n1cnnc1SCC(=O)NCC1CCCO1 (stereo unspecified) : -21.19

// recorded Percent Effect for Cc1ccccc1-n1cnnc1SCC1CCCCO1 (stereo unspecified) : 69.07

// recorded Percent Effect for COc1cc(N2CCCC(c3nccn3CCN(C)C)C2)nc(N)n1 (stereo unspecified) : 42.15

====

# System: Trypanosoma brucei
# procedureDetails: Trypanosoma brucei 72 hour study
# Assay type: functional, organism-based
# Set-up: scale not given: in the data most compounds retested in dose-response had high values
# testSettings: 30 µM; 30.03 µM
Hit rate of the full screen: of about 66,000 compounds, about 960 (1.5%) showed an effect of 50% or more. The sample as a whole holds a higher share of strong results than the screen did.
recordedMetric: Percent Effect (%)
Field: numeric (%). Do not append units.

Consider the following illustrative entries.
compound | Percent Effect [%]
CCC[C@@H]1CN(Cc2cc(C#N)n(C)c2C)C[C@H]1NS(C)(=O)=O | 0.9985
CCNC(=O)c1nnn(Cc2ccccc2)c1OC | 40.11
CCN(CC)C(=O)c1nnn(Cc2ccccc2)c1OC | 61.55
N[C@@H]1CCN(Cc2cc(-c3ccccc3OC(F)(F)F)no2)C[C@H]1O | -20.57
OC1COCCN(Cc2cc(-c3ccccc3OC(F)(F)F)no2)C1 (stereo unspecified) | -31.26

// recorded Percent Effect for O=C(O)C(F)(F)F.O=C([C@@H]1CCO[C@@H]2CCN(CC3CCOCC3)C[C@H]21)N1CCCO1 : -11.19

====

Catalogue of molecules with associated Percent Effect
# Test system: Trypanosoma brucei
# procedureDetails: Trypanosoma brucei 72 hour study
# Type: functional, organism-based
# Parameters: scale not given: in the data most compounds retested in dose-response had high values
# testSettings: 30 µM; 30.03 µM
Among all 66,000 compounds or so, about 960 (1.5%) showed an effect of 50% or more. The full list was thinned out, with strong results kept by preference.
Field: numeric (%). Do not append units.

Consider the following illustrative entries.
molecule | measurement
CC(C)c1nc(CN(C)C(=O)C(O)c2ccc(Cl)cc2)cs1 (stereo unspecified) | 3.875
Nc1nccnc1C(=O)NC1CCCN(Cc2c(F)cccc2F)C1 (stereo unspecified) | -36.01
CC(C)c1nc(CN(C)C(=O)[C@H](N)Cc2ccc(Cl)cc2)cs1 | -3.528
COc1cccc(N2CCC(CNC(=O)NCc3ccco3)C2)c1 (stereo unspecified) | 0.1518
CCOc1nnc(CN(C)CC2CCCN2c2cccnn2)s1 (stereo unspecified) | 2.197

// recorded Percent Effect for COc1ccccc1N1CCC(CNCc2cccc(C#N)c2)C1 (stereo unspecified) : 38.86

// recorded Percent Effect for CC(C)c1nc(CN(C)C(=O)CCc2ccc3c(c2)OCO3)cs1 : 12.36

// recorded Percent Effect for Cc1cccc(CN2C[C@@H]3COC[C@]3(CNC(=O)c3ccno3)C2)n1.O=C(O)C(F)(F)F.O=C(O)C(F)(F)F : 26.49

// recorded Percent Effect for O=C(O)C(F)(F)F.c1cnc(N2CCC3(CCN(CC4CCOC4)CC3)C2)nc1 (stereo unspecified) : -13.94

// recorded Percent Effect for O=C(O)C(F)(F)F.c1cnc(N2CCCC3(CCN(CC4CCOC4)CC3)C2)nc1 (stereo unspecified) : 56.13
